Molecular target: corticotropin releasing factor 1 receptor
Assay: cell-based or functional assay
Ends that are not written are not given here.
Outcome label depends on CRF1R Emax relative to 80%: at/above gives MET, below gives NOT MET.

binder: ZGPPISIDLPTGLLRKMIEIEKQEKEKQQAANNRLLLDTI (C-terminal amide) [SEQ ID NO 73]
class.assignment: NOT MET
//
binder: ZGPPISIDLPWFLLRKMIEIEKQEKEKQQAANNRLLLDTI (C-terminal amide) [SEQ ID NO 187]
class.assignment: NOT MET
//
binder: DNPSLSIDLPFLLLRTLLELARTQSQRERAEQNAIIFASV-NH2 [SEQ ID NO 180]
class.assignment: MET
//
binder: ZGPPISIDLPRYLLRKMIEIEKQEKEKQQAANNRLLLDTI (C-terminal amide) [SEQ ID NO 65]
class.assignment: NOT MET
//
binder: ZGPPISIDLPFQLLRKMIEIEKQEKEKQQATTNRLLLDRV (C-terminal amide) [SEQ ID NO 18]
class.assignment: MET
//
binder: ZGPPISIDLPLELLRKMIEIEKQEKEKQQAANNRLLLDTI (C-terminal amide) [SEQ ID NO 82]
class.assignment: MET
